Some binders, each annotated with its measured OD (against Fc).
# assayed_system: T1, Fc protein
# T1 construct: Counter-screen for the Fc part of CTLA4-Fc
# assay_comment: ELISA, Fc protein coated, 10 ng VHH/well

binder: CTLA4 heavy chain single domain antibody No. C16 (VHH, Camel VHH expressed in E. coli (PET32b), nickel-purified) VHH: QVQLQESGGGSVQAGGSLTLSCAASGYTGDLVAWFRQTPGKEREGVAAISRTGLTTYYADSVKGRFTISQDTAKNTGYLQMNSMKPEDTAMYYCVAGWHVGGTWYKTSSYDYWGQGTQVTVSS
OD (against Fc) [OD405]: 0.053

binder: CTLA4 heavy chain single domain antibody No. J17 (VHH, Camel VHH expressed in E. coli (PET32b), nickel-purified) VHH: QVQLQESGGGSVQAGGSLRLSCAASGFTLSSYTMTWLRQAPGKGLEWVSTINSGGSTSYADSVKGRFAISRDNAKNILYLQLNSLEIEDTGMYYCQGGLTQRGQGTQVTVSS
OD (against Fc) [OD405]: 0.046

binder: CTLA4 heavy chain single domain antibody No. J42 (VHH, Camel VHH expressed in E. coli (PET32b), nickel-purified) VHH: QVQLQESGGGSVQAGGSLRLSCAASGYTYSSYNSNCMGWFRQAPGKEREGVAAIDSDGSTSYADSVKGRFTISKDNAKNTLYLQMNSLKPEDTAMYYCAASPRTCEVFSLGGSWHLFGYWGQGTQVTVSS
OD (against Fc) [OD405]: 0.045

binder: CTLA4 heavy chain single domain antibody No. J35 (VHH, Camel VHH expressed in E. coli (PET32b), nickel-purified) VHH: QVQLQESGGGSVQAGGSLRLSCAASGYTSGYYVMGWYRQAPGKLREFVSSIDSNGGTMYADSVKGRFTISQDNAKNTAHLQMNSLKPEDTAMYYCKRDSPGNFYWGQGTQVTVSS
OD (against Fc) [OD405]: 0.036

binder: CTLA4 heavy chain single domain antibody No. 138 (VHH, Camel VHH expressed in E. coli (PET32b), nickel-purified) VHH: QVQLQESGGGSVQAGGSLTLSCAASGYANSNTCMGWFRQAPGKERERVAAISGVGTGTYYADSVKGRFTISRDNGKNTLFLQMNSLKPEDTAMYYCAAAPEGRAWCSRDPSGYNYWGQGTQVTVSS
OD (against Fc) [OD405]: 0.041
